B1: CLPTM1 (parent)
chain: MNLHVYISEHEHFTDFNATSALFW

Variants of: B1
measurement-description: protein stability index of a GFP-peptide fusion (GPS, HEK-293T) (PSI 1-6); higher = more stable;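 also: lentivirally expressed fusions sorted by FACS into six bins by GFP to DsRed ratio, PSI derived from sequencing read proportions per bin multiplied by bin number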
test-conditions: c terminus: a fixed tail appended
measure: protein stability index

sequence-change: L22S
result: 1.97

sequence-change: V5Y
result: 2.24

sequence-change: H10C
result: 2.77

sequence-change: E9P
result: 1.5

sequence-change: T19V
result: 1.89

sequence-change: F13K
result: 4.65

sequence-change: S20H
result: 4.53

sequence-change: H10S
result: 2.59

sequence-change: H12F
result: 3.38

sequence-change: W24C
result: 1.83

sequence-change: S20I
result: 2.69

sequence-change: F16D
result: 1.79

sequence-change: I7D
result: 2.53

sequence-change: A21H
result: 2.09

sequence-change: M1N
result: 3.69

sequence-change: S8W
result: 3.59

sequence-change: T19W
result: 1.67

sequence-change: H4W
result: 4.27

sequence-change: L3S
result: 2.15

sequence-change: A18R
result: 3.55

sequence-change: E11C
result: 3.77

sequence-change: N2C
result: 2.73

From: the supplement of paper PMC10567573
